Target: T1, mouse Transferrin Receptor overexpressed on Hek 293 cells (mouse, UniProt Q62351 1-763)
T1 construct: whole, on cells; also called Hek293/mTfR; 293/mTFR
T1 sequence (Q62351 whole entry): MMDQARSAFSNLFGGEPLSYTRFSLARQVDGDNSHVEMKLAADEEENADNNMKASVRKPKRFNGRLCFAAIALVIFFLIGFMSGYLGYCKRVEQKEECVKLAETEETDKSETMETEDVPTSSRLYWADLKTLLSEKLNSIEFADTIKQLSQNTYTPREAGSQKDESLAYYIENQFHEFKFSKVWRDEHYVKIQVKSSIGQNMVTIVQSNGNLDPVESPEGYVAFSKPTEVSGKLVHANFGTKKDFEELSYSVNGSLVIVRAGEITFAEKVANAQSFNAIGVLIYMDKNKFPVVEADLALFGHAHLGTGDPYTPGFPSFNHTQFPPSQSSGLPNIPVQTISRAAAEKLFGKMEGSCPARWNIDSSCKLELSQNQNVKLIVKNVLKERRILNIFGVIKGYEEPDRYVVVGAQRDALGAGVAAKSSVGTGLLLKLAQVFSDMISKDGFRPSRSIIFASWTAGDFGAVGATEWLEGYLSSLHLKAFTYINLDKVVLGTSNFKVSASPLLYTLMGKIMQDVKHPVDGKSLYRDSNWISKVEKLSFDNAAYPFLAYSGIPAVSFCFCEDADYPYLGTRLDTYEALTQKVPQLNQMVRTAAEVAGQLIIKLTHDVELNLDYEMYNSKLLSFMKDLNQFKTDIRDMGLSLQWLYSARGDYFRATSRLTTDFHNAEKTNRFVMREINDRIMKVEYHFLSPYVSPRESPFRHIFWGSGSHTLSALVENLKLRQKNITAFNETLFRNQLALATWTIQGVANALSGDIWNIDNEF
Assay: cell-based MSD-ECL binding on Hek293 cells overexpressing mouse TfR

- Binder: "AB405 (antibody, V domains shown, constant regions not assigned; also called TfR(AB405)) VH: QVQLVQSGAEVKKPGASVKVSCKASGFTFSNYGMHWIRQAPGQGLEWIAMIYYDSSKMNYADTVKGRFTITRDNSTNTLYMELSSLRSEDTAVYYCAVPTSHYVVDVWGQGTTVTVSS VL: EIVMTQSPATLSVSPGERATLSCQASQDIGNWLAWYQQKPGQSPRLLIYGATSLADGVPARFSGSRSGTEFTLTISSLQSEDFAVYYCLQAYNTPWTFGGGTKVEIKR"
  EC50 / pM: 13600
- Binder: "AB402 (antibody, V domains shown, humanized variant of AB221; also called TfR(AB402)) VH: EVQLVESGGGLVQPGGSLRLSCAASGFTFSNYGMHWIRQAPGKGLEWIAMIYYDSSKMNYADTVKGRFTISRDNAKNSLYLQMNSLRAEDTAVYYCAVPTSHYVVDVWGQGTTVTVSS VL: AIQMTQSPSSLSASVGDRVTITCQASQDIGNWLAWYQQKPGKSPKLLIYGATSLADGVPSRFSGSRSGTDFTLTISSLQPEDFATYYCLQAYNTPWTFGGGTKVEIKR"
  EC50 / pM: 60
- Binder: "AB403 (antibody, V domains shown, humanized variant of AB221; constant regions not assigned; also called TfR(AB403)) VH: EVQLVESGGGLVQPGGSLRLSCAASGFTFSNYGMHWIRQAPGKGLEWIAMIYYDSSKMNYADTVKGRFTISRDNAKNSLYLQMNSLRAEDTAVYYCAVPTSHYVVDVWGQGTTVTVSS VL: EIVMTQSPATLSVSPGERATLSCQASQDIGNWLAWYQQKPGQSPRLLIYGATSLADGVPARFSGSRSGTEFTLTISSLQSEDFAVYYCLQAYNTPWTFGGGTKVEIKR"
  EC50 / pM: 90

Each recorded value in this set is attributed to patent US20140212423A1.
